# system: RORγt (Homo sapiens)
# Sequence (P51449 1-497 isoform P51449-2, species assumed): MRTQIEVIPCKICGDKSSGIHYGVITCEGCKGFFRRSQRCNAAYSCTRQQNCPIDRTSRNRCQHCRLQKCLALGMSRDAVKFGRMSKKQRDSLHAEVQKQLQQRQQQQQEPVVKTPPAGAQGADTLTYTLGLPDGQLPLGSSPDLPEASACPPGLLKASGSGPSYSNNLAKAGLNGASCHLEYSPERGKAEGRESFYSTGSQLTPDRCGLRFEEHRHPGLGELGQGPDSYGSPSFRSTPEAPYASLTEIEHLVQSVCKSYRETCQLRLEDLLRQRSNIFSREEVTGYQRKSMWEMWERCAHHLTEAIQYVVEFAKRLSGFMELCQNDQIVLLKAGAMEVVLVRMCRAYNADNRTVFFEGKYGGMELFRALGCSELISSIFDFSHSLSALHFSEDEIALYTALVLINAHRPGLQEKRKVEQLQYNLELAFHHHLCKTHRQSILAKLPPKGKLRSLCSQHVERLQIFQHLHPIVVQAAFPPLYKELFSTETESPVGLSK
# experiment-notes: Cofactor recruitment test (Alpha Screen, biotinylated SRC-1 peptide)
# Type: biochemical
# measurement-context: test compound 1 μM; read-out: signal value inhibitory rate (%)
# Experimental: Cofactor Recruitment Test Cofactor recruitment test was performed by Alpha Screen (Histidine Detection Kit, PerkinElmer) method. First, a test compound diluted with an assay buffer (50 mM Tris-HCl (pH 7.5), 50 mM KCl, 1 mM DTT, 0.1% BSA) was added to a 384 well plate by 5 μL each. […] The mixture was stood in a dark place for 1 hr, and the signal value was measured by Envision (PerkinElmer).
Parameter: inhibition at 1 µM. Scope: all listed entries.
test-readout: inhibition at 1 µM (%)

[
  {
    "compound": "CCn1c(=O)c2cc(NC(=O)CC(C)CC(=O)Nc3ccc(C#N)c(Cl)c3)ccc2n(CSC)c1=O (stereo not shown)",
    "test-readout": "inhibition at 1 µM",
    "quantitative-readout": 103
  },
  {
    "compound": "CCn1c(=O)n(CCCOC)c(=O)c2cc(NC(=O)CC(C)CC(=O)Nc3ccc(C#N)c(Cl)c3)ccc21 (stereo not shown)",
    "test-readout": "inhibition at 1 µM",
    "quantitative-readout": 104
  },
  {
    "compound": "CCn1c(=O)n(CCOC)c(=O)c2cc(NC(=O)CC(C)CC(=O)Nc3ccc(C#N)c(Cl)c3)ccc21 (stereo not shown)",
    "test-readout": "inhibition at 1 µM",
    "quantitative-readout": 105
  },
  {
    "compound": "CC(CC(=O)Nc1ccc(C#N)c(Cl)c1)CC(=O)Nc1ccc2c(c1)C(=O)N(CC1CC1)C(=O)C21CCCC1 (stereo not shown)",
    "test-readout": "inhibition at 1 µM",
    "quantitative-readout": 103
  },
  {
    "compound": "CC(C)n1c(=O)n(CC2CC2)c(=O)c2cc(NC(=O)CC(C)(O)CC(=O)Nc3ccc(C#N)c(Cl)c3)ccc21 (stereo not shown)",
    "test-readout": "inhibition at 1 µM",
    "quantitative-readout": 103
  },
  {
    "compound": "CCn1c(=O)c2cc(NC(=O)CC(C)CNC(=O)c3ccc(C#N)c(Cl)c3)ccc2n(CC)c1=O (stereo not shown)",
    "test-readout": "inhibition at 1 µM",
    "quantitative-readout": 104
  },
  {
    "compound": "CCn1c(=O)c2cc(C(=O)NCC(C)CC(=O)Nc3ccc(C#N)c(Cl)c3)ccc2n(CC)c1=O (stereo not shown)",
    "test-readout": "inhibition at 1 µM",
    "quantitative-readout": 105
  }
]

* * *

# system: RORγt (Homo sapiens)
# experiment-notes: RORγt binding test (TR-FRET, fluorescent-labeled cholesterol)
# measurement-context: binding inhibitory rate of fluorescent-labeled cholesterol to RORγt at test compound 1 μM
test-readout: inhibition at 1 µM (%)

[
  {
    "compound": "CCn1c(=O)n(C2CC2)c(=O)c2cc(NC(=O)CC(C)CC(=O)Nc3ccc(C#N)c(Cl)c3)ccc21 (centres unmarked)",
    "test-readout": "inhibition at 1 µM",
    "value-units": "%",
    "quantitative-readout": 102
  },
  {
    "compound": "CCn1c(=O)n(C[Si](C)(C)C)c(=O)c2cc(NC(=O)CC(C)CC(=O)Nc3ccc(C#N)c(Cl)c3)ccc21 (centres unmarked)",
    "test-readout": "inhibition at 1 µM",
    "value-units": "%",
    "quantitative-readout": 98.5
  },
  {
    "compound": "CCn1c(=O)c2cc(NC(=O)CC(C)CC(=O)Nc3ccc(C#N)c(Cl)c3)ccc2n(CSC)c1=O (centres unmarked)",
    "test-readout": "inhibition at 1 µM",
    "value-units": "%",
    "quantitative-readout": 95.6
  },
  {
    "compound": "CC(O)(CC(=O)Nc1ccc(C#N)c(Cl)c1)CC(=O)Nc1ccc2c(c1)c(=O)n(CC1CC1)c(=O)n2CC1CC1 (centres unmarked)",
    "test-readout": "inhibition at 1 µM",
    "value-units": "%",
    "quantitative-readout": 103
  },
  {
    "compound": "CCn1c(=O)n(CSC)c(=O)c2cc(NC(=O)CC(C)CC(=O)Nc3ccc(C#N)c(Cl)c3)ccc21 (centres unmarked)",
    "test-readout": "inhibition at 1 µM",
    "value-units": "%",
    "quantitative-readout": 100
  },
  {
    "compound": "CCn1c(=O)n(CCOC)c(=O)c2cc(NC(=O)CC(C)CC(=O)Nc3ccc(C#N)c(Cl)c3)ccc21 (centres unmarked)",
    "test-readout": "inhibition at 1 µM",
    "value-units": "%",
    "quantitative-readout": 101
  },
  {
    "compound": "CCN1C(=O)C(c2ccccc2)Oc2cc(NC(=O)CC(C)CC(=O)Nc3ccc(C#N)c(Cl)c3)ccc21 (centres unmarked)",
    "test-readout": "inhibition at 1 µM",
    "value-units": "%",
    "quantitative-readout": 98.3
  },
  {
    "compound": "CCN1Cc2cc(NC(=O)CC(C)CC(=O)Nc3ccc(C#N)c(Cl)c3)ccc2N(CC)C1=O (centres unmarked)",
    "test-readout": "inhibition at 1 µM",
    "value-units": "%",
    "quantitative-readout": 92.8
  }
]

These data points were gathered from patent US9834520B2.
